- assayed_system: TAK1 (TAK1-TAB1 fusion protein) (Homo sapiens, UniProt O43318)
- Sequence (O43318 15-303): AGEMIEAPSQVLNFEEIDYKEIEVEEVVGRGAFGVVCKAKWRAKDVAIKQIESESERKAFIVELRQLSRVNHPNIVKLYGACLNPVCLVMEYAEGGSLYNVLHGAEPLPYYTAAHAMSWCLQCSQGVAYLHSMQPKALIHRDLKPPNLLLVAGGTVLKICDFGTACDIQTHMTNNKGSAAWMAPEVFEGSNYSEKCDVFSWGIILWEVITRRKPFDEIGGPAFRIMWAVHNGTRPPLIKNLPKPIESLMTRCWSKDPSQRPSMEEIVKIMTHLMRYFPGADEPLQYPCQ
- Sequence (Q15750 468-504 partner): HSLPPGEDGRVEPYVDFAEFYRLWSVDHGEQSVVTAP
- experiment: SPR

{"columns": ["compound", "Kd (µM)"],
 "data": [
  ["COc1cc(Nc2ncc(F)c(Nc3ccc4c(n3)N(COP(=O)(O)O)C(=O)C(C)(C)O4)n2)cc(OC)c1OC [R788]", 12.1]
]}
